Please respond with reported activity at 1 µM for every item in the list.
- SYSTEM: glucokinase (GK) enzyme (Homo sapiens)
- Sequence (P35557 1-465): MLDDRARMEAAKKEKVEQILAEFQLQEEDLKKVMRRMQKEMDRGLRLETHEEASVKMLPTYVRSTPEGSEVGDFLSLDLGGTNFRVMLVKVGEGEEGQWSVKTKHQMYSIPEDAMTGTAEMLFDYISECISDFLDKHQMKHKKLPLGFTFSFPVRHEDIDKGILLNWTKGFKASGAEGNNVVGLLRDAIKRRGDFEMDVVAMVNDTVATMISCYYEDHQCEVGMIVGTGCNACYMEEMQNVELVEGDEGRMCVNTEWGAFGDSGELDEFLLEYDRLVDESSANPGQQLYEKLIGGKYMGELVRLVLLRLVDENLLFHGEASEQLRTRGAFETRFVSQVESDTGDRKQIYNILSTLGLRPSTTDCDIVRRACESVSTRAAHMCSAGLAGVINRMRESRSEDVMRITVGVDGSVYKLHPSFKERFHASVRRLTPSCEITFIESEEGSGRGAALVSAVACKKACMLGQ
- METHOD SUMMARY: In-vitro glucokinase (GK) activation assay (coupled with glucose-6-phosphate dehydrogenase, absorbance at 340)
- Assay type: biochemical
- ASSAY CONTEXT: 1 uM compound; glucose 2.5 mM; read-out: % of GK activity wrt DMSO
- Method: The compound of the invention was incubated with glucokinase (GK) enzyme (0.2 units) for 10 minutes in assay buffer at 26° C. After incubation, addition of glucose-6-phosphate dehydrogenase (2.5 units), ATP (1 mM) and glucose (2.5 mM). Absorbance is measured at 340 nm for 15 minutes with 10 second interval using UV transparent plate in kinetic mode on Spectramax-190 at 30° C.
Numbers only, in %.

COMPOUND	activity at 1 µM / %
Cc1nnc(-c2ccc(Oc3cc(OC4CCN(C(C)C)C4=O)cc(C(=O)Nc4nccs4)c3)cc2)o1 (stereo not drawn)	201
Cc1nnc(-c2cccc(Oc3cc(OC4CCN(C)C4=O)cc(C(=O)Nc4nccs4)c3)c2)o1 (stereo not drawn)	204

compound Cc1nnc(-c2ccc(Oc3cc(OC4CCN(C)C4=O)cc(C(=O)Nc4ncc(Br)s4)c3)cc2)o1 (stereo not drawn) , activity at 1 µM observed: 205
